Measured AUCall accompanies every entry in the list below.
# method notes: Pharmacokinetics of PEGylated protease inhibitor prodrugs in rats
# Assay type: in vivo, male Sprague-Dawley rats
# Set-up: concentration or dose not given beside the values
# condition: prodrug in plasma, mean ± SD
A number alone suffices; assume ng·h/mL.

Consider the following illustrative entries.
| molecule | unit of measurement | AUCall |
| --- | --- | --- |
| CCOC(CC)OC(CN(Cc1ccc(-c2ccccn2)cc1)NC(=O)C(NC(=O)OC)C(C)(C)C)C(Cc1ccccc1)NC(=O)C(NC(=O)OCCOCCOCCOC)C(C)(C)C (mixture of isomers) [1-ethoxypropoxy-mPEG3-Atazanivir, atazanavir-1-ethoxypropoxy-mPEG3] | ng·h/mL | 8480 |
| COCCOCCOCCOC(=O)NC(C(=O)NC(Cc1ccccc1)C(CN(Cc1ccc(-c2ccccn2)cc1)NC(=O)C(NC(=O)OC)C(C)(C)C)OC(=O)CCCC(=O)O)C(C)(C)C (stereo not shown) [mPEG3-Atazanavir-glutaric acid] | ng·h/mL | 351 |
| COCCOCCOCCOC(=O)NC(C(=O)NC(Cc1ccccc1)C(CN(Cc1ccc(-c2ccccn2)cc1)NC(=O)C(NC(=O)OC)C(C)(C)C)OC(=O)COCCOC(=O)C(N)Cc1ccccc1)C(C)(C)C.Cl (stereo not shown) [mPEG3-Atazanavir-CME-phenylalanine HCl, mPEG3-atazanavir-CME-phenylalanine] | ng·h/mL | 10.2 |

Let us examine a further case.
stdin: Returns the measured AUCall for the input molecule. Input: COCCOCCOCCOC(=O)NC(C(=O)NC(Cc1ccccc1)C(CN(Cc1ccc(-c2ccccn2)cc1)NC(=O)C(NC(=O)OC)C(C)(C)C)OC(=O)CCCC(=O)OC1C(O)C(O)OC1C(O)CO)C(C)(C)C (stereo not shown)
stdout: 221

---

Measured Tmax* Median accompanies every entry in the list below.
# method notes: Pharmacokinetics of released PEGylated protease inhibitor following P.O. administration of prodrugs in rats
# Type: in vivo, male Sprague-Dawley rats
# condition: mPEG3-atazanavir in plasma after PO administration of mPEG3-ATV or of the listed prodrug, rats (n = 4-5)
A number alone suffices; assume min.

Consider the following illustrative entries.
| compound | Tmax* Median / min |
| --- | --- |
| COCCOCCOCCOC(=O)N[C@H](C(=O)N[C@@H](Cc1ccccc1)[C@H](CN(Cc1ccc(-c2ccccn2)cc1)NC(=O)[C@@H](NC(=O)OC)C(C)(C)C)OC(C)=O)C(C)(C)C [Acetyl-mPEG3-ATV, O-Acetyl-mPEG3-Atazanavir] | 45 |
| COCCOCCOCCOC(=O)NC(C(=O)NC(Cc1ccccc1)C(CN(Cc1ccc(-c2ccccn2)cc1)NC(=O)C(NC(=O)OC)C(C)(C)C)OC(=O)C(N)CC(C)C)C(C)(C)C.Cl [mono-mPEG3-Atazanavir-L-Leucine, mPEG3-Atazanavir-L-Leucine] | 45 |
| COCCOCCOCCOC(=O)NC(C(=O)NC(Cc1ccccc1)C(CN(Cc1ccc(-c2ccccn2)cc1)NC(=O)C(NC(=O)OC)C(C)(C)C)OC(=O)COCCOC(=O)C(Cc1ccccc1)NC(=O)C(N)Cc1ccccc1)C(C)(C)C.Cl (stereo not shown) [mPEG3-atazanavir-CME-phe-phenylalanine, mPEG3-Atazanavir-CME-PhePhenylalanine] | 75 |

Let us examine a further case.
stdin: Returns the measured Tmax* Median for the input compound. Input: COCCOCCOCCOC(=O)N[C@H](C(=O)N[C@@H](Cc1ccccc1)[C@H](CN(Cc1ccc(-c2ccccn2)cc1)NC(=O)[C@@H](NC(=O)OC)C(C)(C)C)OCOC)C(C)(C)C [mPEG3-Atazanavir-methyl methyl ether, mPEG3-Atazanavir Methyl Methyl Ether]
stdout: 60

---

# method notes: Pharmacokinetics of PEGylated protease inhibitor prodrugs in rats
# Assay type: in vivo, male Sprague-Dawley rats
# condition: prodrug in plasma, mean ± SD
Measured Cmax accompanies every entry in the list below.
A number alone suffices; assume ng/mL.

| molecule | Cmax (ng/mL) |
| --- | --- |
| CCOC(C)OC(CN(Cc1ccc(-c2ccccn2)cc1)NC(=O)C(NC(=O)OC)C(C)(C)C)C(Cc1ccccc1)NC(=O)C(NC(=O)OCCOCCOCCOCCOCCOC)C(C)(C)C (mixture of isomers) | 1420 |
| CCOC(=O)OC(CN(Cc1ccc(-c2ccccn2)cc1)NC(=O)C(NC(=O)OC)C(C)(C)C)C(Cc1ccccc1)NC(=O)C(NC(=O)OCCOCCOCCOC)C(C)(C)C (stereo not shown) [mPEG3-atazanavir ethyl carbonate, mPEG3-Atazanavir Ethyl Carbonate] | 1190 |
| COCCOCCOCCOCCOCCOC(=O)NC(C(=O)NC(Cc1ccccc1)C(CN(Cc1ccc(-c2ccccn2)cc1)NC(=O)C(NC(=O)OC)C(C)(C)C)OC(=O)COCCOC(=O)C(Cc1ccccc1)NC(=O)C(N)Cc1ccccc1)C(C)(C)C.Cl (stereo not drawn) [CME Phe-Phe-mPEG5-Atazanavir HCl, mPEG5-atazanavir-ethoxy-CME-Phe-Phe] | 2.36 |

Let us examine a further case.
stdin: Returns the measured Cmax for the input molecule. Input: CCOC(=O)O[C@@H](CN(Cc1ccc(-c2ccccn2)cc1)NC(=O)[C@@H](NC(=O)OC)C(C)(C)C)[C@H](Cc1ccccc1)NC(=O)[C@@H](NC(=O)OCCOCCOCCOCCOCCOC)C(C)(C)C.Cl [mPEG5-Atazanavir - Ethyl Carbonate HCl, mPEG5-Atazanavir Ethyl Carbonate]
stdout: 740

---

# method notes: Pharmacokinetics of released PEGylated protease inhibitor following P.O. administration of prodrugs in rats
# Format: in vivo, male Sprague-Dawley rats
# condition: mPEG3-atazanavir in plasma after PO administration of mPEG3-ATV or of the listed prodrug, rats (n = 4-5)
Cut-off 20 ng/mL on Cmax Mean, inclusive. At or above means class 1; below means class 0.

| compound | group |
| --- | --- |
| COCCOCCOCCOC(=O)N[C@H](C(=O)N[C@@H](Cc1ccccc1)[C@H](CN(Cc1ccc(-c2ccccn2)cc1)NC(=O)[C@@H](NC(=O)OC)C(C)(C)C)OCOCCOC)C(C)(C)C [mPEG3 ATV-Methyl ethyl methyl ether] | class 0 |
| CCCCCC(=O)O[C@@H](CN(Cc1ccc(-c2ccccn2)cc1)NC(=O)[C@@H](NC(=O)OC)C(C)(C)C)[C@H](Cc1ccccc1)NC(=O)[C@@H](NC(=O)OCCOCCOCCOC)C(C)(C)C [C5H11CO-mPEG3-ATV, C5H11CO-mPEG3-atazanavir] | class 0 |
| COCCOCCOCCOC(=O)NC(C(=O)NC(Cc1ccccc1)C(CN(Cc1ccc(-c2ccccn2)cc1)NC(=O)C(NC(=O)OC)C(C)(C)C)OC(=O)COCCOC(=O)C(N)Cc1ccccc1)C(C)(C)C.Cl (stereo not drawn) [mPEG3-Atazanavir-CME-phenylalanine HCl, mPEG3-atazanavir-CME-phenylalanine] | class 0 |
| COCCOCCOCCOC(=O)N[C@H](C(=O)N[C@@H](Cc1ccccc1)[C@H](CN(Cc1ccc(-c2ccccn2)cc1)NC(=O)[C@@H](NC(=O)OC)C(C)(C)C)OCOC)C(C)(C)C [mPEG3-Atazanavir-methyl methyl ether, mPEG3-Atazanavir Methyl Methyl Ether] | class 1 |
| COCCOCCOCCOC(=O)NC(C(=O)NC(Cc1ccccc1)C(CN(Cc1ccc(-c2ccccn2)cc1)NC(=O)C(NC(=O)OC)C(C)(C)C)OC(=O)CCCC(=O)OC1C(O)C(O)OC1C(O)CO)C(C)(C)C (stereo not drawn) | class 0 |
| COCCOCCOCCOC(=O)N[C@H](C(=O)N[C@@H](Cc1ccccc1)[C@H](CN(Cc1ccc(-c2ccccn2)cc1)NC(=O)[C@@H](NC(=O)OC)C(C)(C)C)OC(=O)[C@H](Cc1ccccc1)NC(=O)[C@@H](N)CC(C)C)C(C)(C)C.Cl [Leu-Phe-mPEG3-Atazanavir, Leu-Phe-mPEG3-Atazanavir Hydrochloride] | class 1 |
| CCC(=O)OC(CN(Cc1ccc(-c2ccccn2)cc1)NC(=O)C(NC(=O)OC)C(C)(C)C)C(Cc1ccccc1)NC(=O)C(NC(=O)OCCOCCOCCOC)C(C)(C)C (stereo not drawn) [C2H5CO-mPEG3-ATV, mPEG3-Atazanavir Propionate] | class 0 |
| CCCCC(=O)OC(CN(Cc1ccc(-c2ccccn2)cc1)NC(=O)C(NC(=O)OC)C(C)(C)C)C(Cc1ccccc1)NC(=O)C(NC(=O)OCCOCCOCCOC)C(C)(C)C (stereo not drawn) [C4H9CO-mPEG3-ATV, C4H9CO-mPEG3-atazanavir] | class 0 |

stdin: Quick check, Cmax Mean >= 20 ng/mL? COCCOCCOCCOC(=O)N[C@H](C(=O)N[C@@H](Cc1ccccc1)[C@H](CN(Cc1ccc(-c2ccccn2)cc1)NC(=O)[C@@H](NC(=O)OC)C(C)(C)C)OC(C)=O)C(C)(C)C [Acetyl-mPEG3-ATV, O-Acetyl-mPEG3-Atazanavir]
stdout: class 0

---

# method notes: Pharmacokinetics of PEGylated protease inhibitor prodrugs in rats
# Format: in vivo, male Sprague-Dawley rats
# condition: prodrug in plasma
property label: MRTlast (h)
A number alone suffices; assume h.

| compound | MRTlast, h |
| --- | --- |
| COCCOCCOCCOCCOCCOC(=O)NC(C(=O)NC(Cc1ccccc1)C(CN(Cc1ccc(-c2ccccn2)cc1)NC(=O)C(NC(=O)OC)C(C)(C)C)OC(=O)COCCOC(=O)C(Cc1ccccc1)NC(=O)C(N)Cc1ccccc1)C(C)(C)C.Cl (stereo not drawn) [CME Phe-Phe-mPEG5-Atazanavir HCl, mPEG5-atazanavir-ethoxy-CME-Phe-Phe] | 1.26 |

stdin: Returns the measured MRTlast for the input compound. Input: COCCOCCOCCOCCOCCOCCOC(=O)NC(C(=O)NC(Cc1ccccc1)C(CN(Cc1ccc(-c2ccccn2)cc1)NC(=O)C(NC(=O)OC)C(C)(C)C)OC(=O)C(N)CC(C)C)C(C)(C)C.Cl (centres unmarked)
stdout: 1.72
